target_or_test_system: SEX4 (Arabidopsis thaliana)
Construct: gift from Dr. Gentry's group, University of Kentucky College of Medicine
Sequence (Q9FEB5 90-379 limits assumed): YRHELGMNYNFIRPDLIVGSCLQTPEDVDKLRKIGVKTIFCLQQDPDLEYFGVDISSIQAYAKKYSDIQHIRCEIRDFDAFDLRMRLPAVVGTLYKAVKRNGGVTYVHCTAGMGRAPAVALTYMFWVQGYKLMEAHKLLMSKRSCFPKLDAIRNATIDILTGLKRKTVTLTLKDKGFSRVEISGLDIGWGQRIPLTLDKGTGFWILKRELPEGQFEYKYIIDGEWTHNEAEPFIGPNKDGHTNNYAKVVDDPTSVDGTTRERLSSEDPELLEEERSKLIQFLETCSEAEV
test_protocol: Phosphatase assay against amylopectin, SEX4
Format: biochemical
condition_description: determined by steady-state kinetic measurements
readout_name: Inhibition model, amylopectin assay, SEX4

Consider the following illustrative entries.
# compound, val
data = [
    ("O=C(O)c1cc(O)c2c(c1)[C@@H]([C@@H]1c3cc(C(=O)O)cc(O)c3C(=O)c3c(OC4OC(CO)C(O)C(O)C4O)cccc31)c1cccc(OC3OC(CO)C(O)C(O)C3O)c1C2=O (stereo partly drawn) [Compound G11, Sennoside]", "Competitive"),
    ("O=C1C=CC(=O)c2c(O)ccc(O)c21", "Uncompetitive"),
    ("CC(C)=CCc1c(-c2ccc(O)cc2O)oc2c(C3C=C(C)CC(C(=O)c4ccc(O)cc4O)C3c3ccc(O)cc3O)c(O)cc(O)c2c1=O (stereo not drawn)", "Uncompetitive"),
    ("CCCCCC/C=C\\CCCCCCCc1cccc(O)c1C(=O)O", "Uncompetitive"),
    ("Cc1c(O)nc2[nH]c(=O)sc2c1C", "Competitive"),
]

Summary for this compound, CCCc1c(O)nc2[nH]c(=O)sc2c1C : Inhibition model, amylopectin assay, SEX4 is Competitive

---

target_or_test_system: LSF2 (Arabidopsis thaliana, UniProt Q9SRK5)
Construct: gift from Dr. Gentry's group, University of Kentucky College of Medicine
Sequence (Q9SRK5 62-282): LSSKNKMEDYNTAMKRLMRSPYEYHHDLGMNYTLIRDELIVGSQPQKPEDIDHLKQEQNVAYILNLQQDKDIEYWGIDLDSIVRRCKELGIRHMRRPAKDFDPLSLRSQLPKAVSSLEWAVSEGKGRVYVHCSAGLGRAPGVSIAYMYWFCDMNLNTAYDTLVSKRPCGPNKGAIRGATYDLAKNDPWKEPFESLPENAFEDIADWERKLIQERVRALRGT
test_protocol: Phosphatase assay against pNPP, LSF2
Assay type: biochemical
condition_description: average ± standard error of three measurements; read-out: IC50, pNPP assay, LSF2
readout_name: pIC50
Entry type: numeric. Quantity: pIC50, the -log10 of concentration in molar units.

Field pIC50 (LSF2 (Arabidopsis thaliana, UniProt Q9SRK5)), entry CCCCCC/C=C\CCCCCCCc1cccc(O)c1C(=O)O : 4.67

With LSF2 (Arabidopsis thaliana, UniProt Q9SRK5) as the test system, Cc1c(O)nc2[nH]c(=O)sc2c1C showed pIC50 of 4.30

Lab entry: LSF2 (Arabidopsis thaliana, UniProt Q9SRK5) assay, compound CCCc1c(O)nc2[nH]c(=O)sc2c1C , pIC50 = 4.35

Reported pIC50 (LSF2 (Arabidopsis thaliana, UniProt Q9SRK5)) for entry O=C(OCC1OC(OC(=O)c2cc(O)c(O)c(O)c2)C(OC(=O)c2cc(O)c(O)c(O)c2)C(OC(=O)c2cc(O)c(O)c(O)c2)C1OC(=O)c1cc(O)c(O)c(O)c1)c1cc(O)c(O)c(O)c1 (stereo not drawn) is 4.87

LSF2 (Arabidopsis thaliana, UniProt Q9SRK5) assay, compound O=C(O)c1cc(O)c2c(c1)[C@@H]([C@@H]1c3cc(C(=O)O)cc(O)c3C(=O)c3c(OC4OC(CO)C(O)C(O)C4O)cccc31)c1cccc(OC3OC(CO)C(O)C(O)C3O)c1C2=O (stereo partly drawn) [Compound G11, Sennoside] , recorded pIC50 = 4.64

Note to self: pIC50 of CC(C)=CCc1c(-c2ccc(O)cc2O)oc2c(C3C=C(C)CC(C(=O)c4ccc(O)cc4O)C3c3ccc(O)cc3O)c(O)cc(O)c2c1=O (stereo not drawn) with LSF2 (Arabidopsis thaliana, UniProt Q9SRK5) was 4.64

Values from paper PMC11678766
